- System: platelet aggregation (rabbit platelets, ADP-induced)
- experiment-description: ADP-induced platelet aggregation in vitro (turbidimetric method, rabbit platelet-rich plasma)
- Assay type: cell-based
- assay-context: at all three times
- Procedure: In the biological tests hereafter described, the products were assayed as the tartrate salts. Male rabbits weighing 2.5-3.5 Kg were used. Fifty four ml of blood were withdrawn from the carotid artery of rabbits anaesthetized with ether. The PRP was obtained by centrifugation at 400 g for 10 minutes. The concentration of the platelets was adjusted to 250,000/mm^3 by diluting the PRP with PPP prepared by a second centrifugation of the blood samples for about 10 minutes at 2000 g. […]
readout-type: activity (inhibition of platelet aggregation, in words)

CO[C@]12C[C@@H](CSc3cnccn3)CN(C)[C@@H]1Cc1cn(C)c3cccc2c13 : very low activity
COc1nccnc1SCC1CN(C)C2Cc3cn(C)c4cccc(c34)C2(OC)C1 (centres unmarked) : very strong activity
CO[C@]12C[C@@H](CNc3cncc(Cl)n3)CN(C)[C@@H]1Cc1cn(C)c3cccc2c13 : very strong activity
CO[C@]12C[C@@H](CNc3cnccn3)CN(C)[C@@H]1Cc1cn(C)c3cccc2c13 : very low activity
CO[C@]12C[C@@H](CSc3nccnc3Cl)CN(C)[C@@H]1Cc1cn(C)c3cccc2c13 : very strong activity
